Give kon for every item shown.
- TARGET_ENTITY: T1, human C1s (human, UniProt P09871 16-688)
- T1 construct: also called hC1s; serum-derived human C1s (CompTech)
- T1 sequence: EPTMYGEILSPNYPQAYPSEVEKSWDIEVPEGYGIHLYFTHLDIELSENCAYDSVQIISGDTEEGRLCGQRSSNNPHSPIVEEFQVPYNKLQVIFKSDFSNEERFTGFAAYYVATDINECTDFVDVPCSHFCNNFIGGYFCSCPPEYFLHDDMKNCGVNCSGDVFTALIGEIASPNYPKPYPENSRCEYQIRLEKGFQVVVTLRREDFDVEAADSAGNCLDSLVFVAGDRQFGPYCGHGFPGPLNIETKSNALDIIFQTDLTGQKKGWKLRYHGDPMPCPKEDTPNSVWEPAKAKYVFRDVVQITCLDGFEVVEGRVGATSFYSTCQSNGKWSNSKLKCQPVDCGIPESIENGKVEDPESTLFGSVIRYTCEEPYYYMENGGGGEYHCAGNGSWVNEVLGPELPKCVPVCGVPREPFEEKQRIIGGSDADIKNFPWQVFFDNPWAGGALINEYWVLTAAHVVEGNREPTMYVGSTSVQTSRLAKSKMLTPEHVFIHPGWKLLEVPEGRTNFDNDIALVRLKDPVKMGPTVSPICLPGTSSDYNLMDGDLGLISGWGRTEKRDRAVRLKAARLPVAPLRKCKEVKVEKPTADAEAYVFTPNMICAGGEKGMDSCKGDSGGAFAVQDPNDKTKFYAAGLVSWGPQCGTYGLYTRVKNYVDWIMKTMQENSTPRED
- EXPERIMENTAL_DETAILS: SPR, Ab captured; pH 5.8, 3 uM Ca
The response must be a number in M⁻¹ s⁻¹ with no trailing unit.

Challenge: // query kon value for entry C1_IPN92H0033-SG4GK/IPN93L0030-SK1 (antibody, human IgG4 S228P, kappa, name in Kabat numbering, V domains shown, also called IPN92H0033/IPN93L0030) VH: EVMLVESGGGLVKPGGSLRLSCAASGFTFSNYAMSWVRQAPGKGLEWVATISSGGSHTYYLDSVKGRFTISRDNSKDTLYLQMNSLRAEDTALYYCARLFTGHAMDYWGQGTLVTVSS VL: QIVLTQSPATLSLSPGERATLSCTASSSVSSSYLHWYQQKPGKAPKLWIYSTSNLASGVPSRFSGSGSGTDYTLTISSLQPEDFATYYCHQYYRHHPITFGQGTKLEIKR
Response given: 23500

Challenge: # lookup: kon of C1_IPN92H0026-SG4GK/IPN93L0031-SK1 (antibody, human IgG4 S228P, kappa, name in Kabat numbering, V domains shown, also called IPN92H0026/IPN93L0031) VH: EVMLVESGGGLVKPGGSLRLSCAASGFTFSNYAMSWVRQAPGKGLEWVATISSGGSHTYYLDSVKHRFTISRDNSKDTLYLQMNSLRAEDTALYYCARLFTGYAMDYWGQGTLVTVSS VL: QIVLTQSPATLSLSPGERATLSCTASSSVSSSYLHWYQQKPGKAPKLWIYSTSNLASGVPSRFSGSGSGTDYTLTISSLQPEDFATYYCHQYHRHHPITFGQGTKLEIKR
Response given: 6170

Ref: patent US20210032365A1
